tested target: L-lactate dehydrogenase (Plasmodium falciparum (isolate CDC / Honduras))
procedure details: PfLDH activity inhibition – cell lysate, 3D7 strain, counter-screen for P. falciparum growth inhibition project (AID 2304);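 note: 0% = vehicle and 100% = reference inhibitor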
applied conditions: P. falciparum 3D7 crude extract, LDH APAD/NBT absorbance; at 2 µM; stronger effect = higher value
So I've got a bunch of compounds here, and I need their inhibition values.
Numbers only, in %.

// below: answered compounds
O=C(NC1CCC(CN2CCC(c3c[nH]c4ccccc34)CC2)CC1)c1cc(-c2ccccc2)c(C(F)(F)F)s1 (centres undefined)
2
CC(Cc1ccc(Oc2ccccc2)cc1)NCC(O)c1cccc(C(F)(F)F)c1 (centres undefined)
4
NCc1cccc(-c2cccc(CN(C(=O)Nc3ccccc3)C3CCN(Cc4ccccc4)CC3)c2)c1
-2

Record inhibition for all entries; do not skip any.
1. CCOc1ccc(CN(CCc2ccc3c(c2)OCO3)Cc2cc(OC)ccc2O)cc1
2. COc1ccc(CN2CCN(CCOC(c3ccccc3)c3ccc(Cl)cc3)CC2)c(O)c1 (centres undefined)
3. COc1ccc(O)c(CN2CCN(c3cc(C)ccc3C)CC2)c1

Response:
1: -4; 2: 0; 3: 2

* * *

procedure details: differential killing of epithelial or mesenchymal cells, primary screen, imaging, PC-3E GFP, TEM4-18 mCherry, co-culture (AID 1345086);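 note: cells exposed to compound for 72 h before imaging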
applied conditions: imaging cell counts, measured here: mesenchymal TEM4-18 mCherry cell survival, at 1 µM
Strictly below 0.9 in normalised cell number: true. Otherwise: false.

Completed entries (count: 5):
C[C@@H]1O[C@@H](O[C@H]2CC[C@]3(C=O)C4CC[C@]5(C)[C@@H](C6=CC(=O)OC6)CC[C@]5(O)C4CC[C@]3(O)C2)[C@H](O)[C@H](O)[C@H]1O (some centres undefined)
true
Clc1ccc(COC(Cn2ccnc2)c2ccc(Cl)cc2Cl)c(Cl)c1 (centres undefined)
false
COc1cc([C@@H]2c3cc4c(cc3[C@H](OC(C)=O)C3COC(=O)[C@H]32)OCO4)cc(OC)c1OC (some centres undefined)
true
CN[C@@H](C)[C@@H](O)c1ccccc1
false
O=[N+]([O-])c1ccc(O)c([N+](=O)[O-])c1
false

Query: Find out if reported normalised cell number for C[C@@H]1O[C@@H](O[C@H]2C[C@@H](O)[C@]3(CO)C4C(CC[C@]3(O)C2)[C@@]2(O)CC[C@H](C3=CC(=O)OC3)[C@@]2(C)C[C@H]4O)[C@H](O)[C@H](O)[C@H]1O (some centres undefined) is less than 0.9
Response: true

Query: Find out if reported normalised cell number for CC(C)(C)NCC(O)c1ccccc1Cl (centres undefined) is less than 0.9
Response: false

Query: Strictly below 0.9: is that where normalised cell number of "C[C@@H]1C[C@@H]([C@H](O)CC2CC(=O)NC(=O)C2)C(=O)[C@@H](C)C1" sits?
Response: false

Query: Is the reported normalised cell number for "NCCc1cc(O)c(O)cc1O" strictly below 0.9?
Response: false

* * *

procedure details: antimalarial activity against Dd2 strain (AID 2302);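 note: 0% = DMSO untreated growth and 100% = chloroquine plus artemisinin killed control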
applied conditions: P. falciparum Dd2 in RBCs, LDH growth readout, 72 h; at 2 µM; stronger effect = higher value
test readout: growth inhibition (%)
Answers are plain numbers, in %.

Some solved entries appear below for comparison.
COCCNCc1ccc(-c2ccc(CN(C(=O)Nc3ccccc3)C3CCN(Cc4ccccc4)CC3)cc2)cc1
39
CC[C@H]1CN2CC[C@@H]1C[C@H]2[C@H](O)c1cc(-c2ccccc2)nc2ccc(O)cc12
99
Cc1csc(NC2=NCCN2)n1
1
CC(Cc1ccc(SC(C)(C)C)cc1)NCC(O)c1cccc(Cl)c1 (configuration not stated)
99

Quick one: give me growth inhibition for each item below, same order please.
1. NC(=O)CN1CC=C(c2c[nH]c3ccc(Br)cc23)CC1
2. C=Cc1cc(OC)c2c(c1)c(=O)oc1c2cc(OC)c2c(O)ccc([C@H]3O[C@H]([C@@H](C)O)[C@H](O)[C@H]3O)c21
3. COC(=O)c1ccc(CC(C)NCC(O)c2cccc(Cl)c2Cl)cc1 (configuration not stated)
4. CN(C(=O)OCc1ccccc1)C1CCC(CCN2CCC3(CC2)C(=O)NCN3c2cccc(C(F)(F)F)c2)(c2ccccc2)CC1 (configuration not stated)
5. O=C(NC1CCC(CN2CCC(c3c[nH]c4ccccc34)CC2)CC1)c1cc(-c2cccc(Cl)c2)n(-c2ccc(Cl)cc2Cl)n1 (configuration not stated)
6. COc1cc(C=CC(=O)N2CCC(CN3CCC(c4c[nH]c5ccccc45)CC3)CC2)ccc1O
7. CS(=O)(=O)Nc1ccc2c(C3CCN(CC4CCN(C(=O)/C=C/c5ccc(Cl)c(Cl)c5)CC4)CC3)c[nH]c2c1
8. CC(=O)Nc1ccc(OCCN(CC(C)(C)C)c2ccc(C#N)c(C(F)(F)F)c2)c(Cl)c1

Response:
1: 0; 2: 41; 3: 98; 4: 72; 5: 25; 6: 25; 7: 70; 8: 93

// for each compound in input: emit growth inhibition
1. OC(CNCc1ccccc1OC(F)F)c1cccc(C(F)(F)F)c1 (configuration not stated)
2. CS(=O)(=O)Nc1ccc2[nH]cc(C3CCN(CC4CCC(NC(=O)/C=C/c5ccc(Cl)c(Cl)c5)CC4)CC3)c2c1 (configuration not stated)
3. CN(c1ccc(NC(=O)CCOc2ccccc2)cc1)C1CCN(Cc2cccc(O)c2)CC1
4. CCCCCCC(C)(C)c1cc(O)c2c(c1)OC(C)(C)c1ccncc1-2
5. Cc1ccc2c(C3=CCN(CCCCC4(C)C(=O)Nc5ccccc54)CC3)c(C)[nH]c2c1 (configuration not stated)
6. CN(c1cc(NC(=O)c2ccc(F)cc2)ccn1)C1CCN(Cc2cccc(O)c2)CC1
7. Cc1nc(-c2ccc(-c3ccc(C(=O)Nc4ccc5c(c4)C4(CCNCC4)CO5)cc3)c(C)c2)no1

Response:
[52, 86, -1, 99, 91, 82, 15]

Hey, quick one: what's growth inhibition for each of these?
1. CC(Cc1ccc(NC(=O)[C@@H](C)NCCc2cccc(Cl)c2)cc1)NCCc1cccc(Cl)c1 (some centres not stated)
2. CC(C)NC(=O)Cn1cc(C2CCN(CC3CCN(C(=O)/C=C/c4ccc(Cl)c(Cl)c4)CC3)CC2)c2ccccc21
3. CC(C)C[C@H](Nc1ccc(C#N)c2ccccc12)C(=O)N[C@@H]1CCCc2ccccc21

Response:
1. 54
2. 55
3. 100

Parameters: items (list). Returns: growth inhibition for each item.
1. CCCCCCc1cc(O)c2c3c(c(=O)oc2c1)CCN(C)C3
2. COc1ccc(CC(C)NCC(O)c2ccc(Cl)c(Cl)c2)cc1 (configuration not stated)

Response:
1. 66
2. 96
